- experimental-target: HIV-1 protease (Human immunodeficiency virus type 1 group M subtype B (isolate HXB2) (HIV-1))
- assay-overview: HIV-1 protease enzyme inhibitory assay (protocol of Toth and Marshall)
- Assay type: biochemical
- measurement-parameters: Table 3; means of at least two experiments
Form field: Ki (one value per entry).

compound | Ki
COc1ccc(S(=O)(=O)N(CC(C)C)C[C@@H](O)[C@H](Cc2ccccc2)NC(=O)O[C@H]2CC3OCCO[C@@H]3C2)cc1 (some centres unmarked) | 0.5 nM
COc1ccc(S(=O)(=O)N(CC(C)C)C[C@@H](O)[C@H](Cc2ccccc2)NC(=O)O[C@H]2CC3OCO[C@@H]3C2)cc1 (some centres unmarked) | 0.4 nM

---

- experimental-target: HIV-1 protease (Human immunodeficiency virus type 1 group M subtype B (isolate HXB2) (HIV-1))
- assay-overview: HIV-1 protease enzyme inhibitory assay (protocol of Toth and Marshall)
- Type: biochemical
- measurement-parameters: Table 1; mean values of at least four determinations

chem-smiles | Ki, nM
COc1ccc(S(=O)(=O)N(CC(C)C)C[C@@H](O)[C@H](Cc2ccccc2)NC(=O)O[C@H]2CCCOCC2)cc1 | 0.74
COc1ccc(S(=O)(=O)N(CC(C)C)C[C@@H](O)[C@H](Cc2ccccc2)NC(=O)OC2CCCCCC2)cc1 | 27
COc1ccc(S(=O)(=O)N(CC(C)C)C[C@@H](O)[C@H](Cc2ccccc2)NC(=O)OC2COCCS(=O)(=O)CCOC2)cc1 | 1.9

---

- experimental-target: HIV-1 protease (Human immunodeficiency virus type 1 group M subtype B (isolate HXB2) (HIV-1), UniProt P04585)
- assay-overview: HIV-1 protease enzyme inhibitory assay (protocol of Toth and Marshall)
- Type: biochemical
- measurement-parameters: Table 1; mean values of at least four determinations
pKi: −log10 of the molar value.
Lab note: compare pKi against 8. Equal or greater, write YES. Smaller, write NO.

chem-smiles | group-label
COc1ccc(S(=O)(=O)N(CC(C)C)C[C@@H](O)[C@H](Cc2ccccc2)NC(=O)OC2COCCN(C)CCOC2)cc1 | NO
COc1ccc(S(=O)(=O)N(CC(C)C)C[C@@H](O)[C@H](Cc2ccccc2)NC(=O)O[C@@H]2CCCCOC2)cc1 | YES
COc1ccc(S(=O)(=O)N(CC(C)C)C[C@@H](O)[C@H](Cc2ccccc2)NC(=O)O[C@H]2CCCOCOC2)cc1 | YES
COc1ccc(S(=O)(=O)N(CC(C)C)C[C@@H](O)[C@H](Cc2ccccc2)NC(=O)OC2COCCOCCOCCOC2)cc1 | NO
